- Tested on: PfW2
- Assay Explanation: microbe, parasite or virus in culture
- Format: cell-based, Plasmodium falciparum
- Measurement Setup: Plasmodium falciparum, read-out: PfW2 IC50
Mark YES only when IC50 stays strictly below 6 µM. Values equal to the cut-off are NO.

Dear colleague, could you confirm whether IC50 of Cc1noc(C)c1S(=O)(=O)N1CCN(c2cc(N3CCC4(CC3)CC(=O)c3ccccc3O4)ncn2)CC1 [SZ12] falls below 6 µM? Thanks. NO

A record lists O=C1CC2(CCN(c3cc(N4CCN(S(=O)(=O)c5ccc([N+](=O)[O-])cc5)CC4)ncn3)CC2)Oc2ccccc21 [SZ1] . Is its IC50 below 6 µM? NO

Confirm or reject: IC50 of O=C1CC2(CCN(c3cc(N4CCN(S(=O)(=O)N5CCOCC5)CC4)ncn3)CC2)Oc2ccccc21 [SZ13] lies strictly below 6 µM NO

Does O=C1CC2(CCN(c3cc(N4CCN(S(=O)(=O)c5ccc6ccccc6c5)CC4)ncn3)CC2)Oc2ccccc21 [SZ3] have IC50 strictly under 6 µM? NO

Consider O=C1CC2(CCN(c3cc(N4CCN(S(=O)(=O)c5cccnc5)CC4)ncn3)CC2)Oc2ccccc21 [SZ7] . Does its IC50 lie strictly below 6 µM? YES

I'd appreciate it if you could check whether O=C1CC2(CCN(c3cc(N4CCN(S(=O)(=O)c5ccccc5[N+](=O)[O-])CC4)ncn3)CC2)Oc2ccccc21 [SZ2] has IC50 smaller than 6 µM. NO

Please check: IC50 for O=C1CC2(CCN(c3cc(N4CCN(S(=O)(=O)c5cccc(C(F)(F)F)c5)CC4)ncn3)CC2)Oc2ccccc21 [SZ14] , strictly under 6 µM or not? YES

Hi there! Is IC50 for O=C1CC2(CCN(c3cc(N4CCN(S(=O)(=O)c5ccccc5F)CC4)ncn3)CC2)Oc2ccccc21 [SZ8] below 6 µM, do you know? NO

IC50 strictly < 6 µM for this molecule? O=C1CC2(CCN(c3cc(N4CCN(S(=O)(=O)c5ccc(F)c(F)c5)CC4)ncn3)CC2)Oc2ccccc21 [SZ11] YES

Does the reported IC50 of O=C1CC2(CCN(c3cc(N4CCN(S(=O)(=O)c5cccs5)CC4)ncn3)CC2)Oc2ccccc21 [SZ5] stay below 6 µM? NO

For N#Cc1ccc(S(=O)(=O)N2CCN(c3cc(N4CCC5(CC4)CC(=O)c4ccccc4O5)ncn3)CC2)cc1 [SZ4] , is the recorded IC50 below the cut-off of 6 µM? NO
